For each record, write down the corresponding IC50.
SYSTEM_TESTED: biotinylated human IL-17 (binding to IL17R/Fc) (Homo sapiens, UniProt Q16552)
Construct: 177-IR (IL17R/Fc)
Sequence (Q16552 20-155 limits assumed): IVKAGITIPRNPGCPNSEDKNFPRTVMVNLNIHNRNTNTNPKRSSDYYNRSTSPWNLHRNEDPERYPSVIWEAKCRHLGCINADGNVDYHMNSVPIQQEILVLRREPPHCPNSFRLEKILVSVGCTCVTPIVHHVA
EXPERIMENT_NOTES: IL-17 competition ELISA II (captured IL17R/Fc, biotinylated IL-17)

STRUCTURE_AS_SMILES	REPORTED_RESULT
O=C1CNC(=O)[C@@H](Cc2ccc(NC(=O)[C@H](Cc3ccccc3Cl)NC(=O)Cc3ccccn3)cc2)NC(=O)CC2(CCCC2)CC(=O)NCCCCCN1	< 100 nM
C[C@H]1NC(=O)[C@@H](Cc2ccc(NC(=O)[C@H](Cc3ccccc3Cl)NC(=O)C3(c4ccc(F)cc4)CC3)cc2)NC(=O)CC2(CCCC2)CC(=O)N(C)CCN(C)CCN(C)C1=O	100 to 1000 nM
C[C@H]1NC(=O)[C@@H](CCNC(=O)[C@H](Cc2ccccc2Cl)NC(=O)Cc2ccc(F)cc2)NC(=O)CC2(CCCC2)CC(=O)NCCCCCNC1=O	> 10000 nM
O=C1CC2(CCCC2)CC(=O)N[C@H](Cc2ccc(NC(=O)[C@H](Cc3ccccc3Cl)NC(=O)Cc3ccccc3)cc2)C(=O)NCCNCCN1	< 100 nM
CN1CCOCCOCCN(C)C(=O)[C@@H](Cc2ccc(NC(=O)[C@H](Cc3ccccc3Cl)NC(=O)Cc3ccc(F)cc3)cc2)NC(=O)CC2(CCCC2)CC1=O	< 100 nM
C[C@H]1NC(=O)[C@@H](Cc2ccc(NC(=O)[C@H](Cc3ccccc3Cl)NC(=O)c3cncc4ccccc34)cc2)NC(=O)CC2(CCCC2)CC(=O)NCCCCCNC1=O	< 100 nM

Hi, could you look up IC50 for each item in my list?
1. CN1C(=O)CC2(CCCC2)CC(=O)NCCCCCC#CCNC(=O)[C@H]1Cc1ccc(NC(=O)[C@H](Cc2ccccc2Cl)NC(=O)C2(c3ccc(F)cc3)CC2)cc1
2. O=C1CC2(CCCC2)CC(=O)N[C@H](Cc2ccc(NC(=O)[C@@H](NC(=O)Cc3ccccc3)C3CCCCC3)cc2)C(=O)NCCCCCCN1
3. C[C@H]1NC(=O)[C@@H](Cc2ccc(NC(=O)[C@@H](NC(=O)Cc3ccc(N(C)C)cc3)C3Cc4ccccc4C3)cc2)NC(=O)CC2(CCCC2)CC(=O)N(C)CCCCCN(C)C1=O
4. C[C@H]1NC(=O)[C@@H](Cc2ccc(NC(=O)[C@@H](NC(=O)C(F)(F)c3ccccc3)C3CCCCC3)cc2)NC(=O)CC2(CCCC2)CC(=O)N(C)CCN(C)CCN(C)C1=O
5. CN1CCCCCN(C)C(=O)[C@@H](Cc2ccncc2)NC(=O)[C@@H](Cc2ccc(NC(=O)[C@H](Cc3ccccc3Cl)NC(=O)C(F)(F)c3ccccc3)cc2)NC(=O)CC2(CCCC2)CC1=O
6. C[C@H]1NC(=O)[C@@H](CCCNC(=O)[C@H](Cc2ccccc2Cl)NC(=O)C(F)(F)c2ccccc2)NC(=O)CC2(CCCC2)CC(=O)NCCCCCNC1=O
7. C[C@H]1NC(=O)[C@@H](Cc2ccc(NC(=O)[C@H](Cc3ccccc3Cl)NC(=O)[C@@H](O)c3ccccc3)cc2)NC(=O)CC2(CCCC2)CC(=O)NCCCCCNC1=O
8. Cc1ccc(CC(=O)N[C@@H](Cc2ccccc2Cl)C(=O)Nc2ccc(C[C@H]3NC(=O)CC4(CCCC4)CC(=O)NCCOCCOCCNC3=O)cc2)cc1

["1000 to 10000 nM", "< 100 nM", "< 100 nM", "< 100 nM", "< 100 nM", "> 10000 nM", "< 100 nM", "< 100 nM"]

I need IC50 for every entry listed below, if you could help.
1. O=C1CC2(CCCC2)CC(=O)N[C@H](Cc2ccc(NC(=O)[C@H](Cc3ccccc3Cl)NC(=O)c3ccccc3)cc2)C(=O)NCCCCCCCCN1
2. CC(=O)N[C@@H](Cc1ccccc1Cl)C(=O)Nc1ccc(C[C@H]2NC(=O)CC3(CCCC3)CC(=O)N[C@H](C(=O)O)CCCCNC2=O)cc1
3. O=C1CC2(CCCC2)CC(=O)N[C@H](Cc2ccc(NC(=O)[C@H](Cc3ccccc3Cl)NC(=O)c3ccc(F)cc3O)cc2)C(=O)NCCOCCOCCN1
4. CN(C)c1ccc(CC(=O)N[C@H](C(=O)Nc2ccc(C[C@H]3NC(=O)CC4(CCCC4)CC(=O)NCCCCCCCCNC3=O)cc2)C2CCCCC2)cc1
5. CN1CCOCCOCCNC(=O)[C@@H](Cc2ccc(NC(=O)[C@H](CC3CCCCC3)NC(=O)C(F)(F)c3ccccc3)cc2)NC(=O)CC2(CCCC2)CC1=O
6. C[C@H]1NC(=O)[C@@H](Cc2ccc(NC(=O)[C@H](Cc3ccccc3Cl)NC(=O)Oc3ccccc3)cc2)NC(=O)CC2(CCCC2)CC(=O)NCCCCCNC1=O
7. C[C@H]1NC(=O)[C@@H](Cc2ccc(NC(=O)[C@H](Cc3ccccc3Cl)NC(=O)C(F)(F)c3ccccc3)cc2)NC(=O)CC2(CCCC2)CC(=O)N(C)CCN(C)CCN(C)C1=O

100 to 1000 nM
100 to 1000 nM
100 to 1000 nM
< 100 nM
< 100 nM
< 100 nM
< 100 nM
